Value source: patent US20260028354A1

Molecular target: ER in T47D cells (Homo sapiens (Human), UniProt P03372)
Sequence (P03372 whole entry): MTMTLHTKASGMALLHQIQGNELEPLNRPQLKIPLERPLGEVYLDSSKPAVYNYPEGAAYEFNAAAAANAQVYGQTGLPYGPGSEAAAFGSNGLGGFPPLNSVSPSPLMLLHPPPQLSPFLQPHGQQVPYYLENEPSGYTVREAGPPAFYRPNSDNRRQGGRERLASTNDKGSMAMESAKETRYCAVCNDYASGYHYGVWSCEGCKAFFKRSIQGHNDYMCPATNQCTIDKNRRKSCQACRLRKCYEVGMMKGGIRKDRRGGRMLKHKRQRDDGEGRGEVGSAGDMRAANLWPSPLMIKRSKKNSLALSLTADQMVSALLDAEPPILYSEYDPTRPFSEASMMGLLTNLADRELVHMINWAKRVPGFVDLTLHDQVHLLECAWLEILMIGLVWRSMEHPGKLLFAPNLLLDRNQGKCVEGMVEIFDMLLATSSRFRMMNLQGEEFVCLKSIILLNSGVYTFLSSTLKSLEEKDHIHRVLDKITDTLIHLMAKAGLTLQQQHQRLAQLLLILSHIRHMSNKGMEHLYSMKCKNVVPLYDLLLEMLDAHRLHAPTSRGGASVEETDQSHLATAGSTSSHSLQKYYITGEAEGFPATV
Assay: In-cell Western (ICW) ER degradation assay in T47D cells
Type: cell-based
Conditions: ER degradation, 16 hrs treatment
PROPERTY: DC50

// batch mode: one DC50 value per listed entry
1. COc1cc(C(=O)NC2CCC(=O)NC2=O)ncc1N1CCN(CC2CCN(c3ccc([C@@H]4c5ccc(O)cc5CC[C@@H]4c4ccccc4)cc3)CC2)CC1 (stereo partly drawn)
2. O=C1CC[C@H](N2Cc3cc4c(cc3C2=O)OC[C@H]2CN(C[C@@H]3COC5(CCN(c6ccc([C@@H]7c8ccc(O)cc8CC[C@@H]7c7ccccc7)cc6)CC5)C3)CCN42)C(=O)N1 (single isomer, unassigned)
3. COc1cc(N2CCC3(CC2)CC(CN2CCN4c5ccc(C(=O)N[C@H]6CCC(=O)NC6=O)nc5OC[C@@H]4C2)C3)ccc1[C@H]1c2ccc(O)cc2CC[C@H]1c1ccccc1 (single isomer, unassigned)

["< 1 nM", "< 1 nM", "< 1 nM"]
